Attribution: PubChem BioAssay (NCI)

assay: NCI Yeast Anticancer Drug Screen. Data for the sgs1 mgt1 strain (AID 161);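 note: 0% = growth of cultures given vehicle only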; settings: S. cerevisiae sgs1 mgt1 strain, at 50.0 µM, active compounds read high
Compounds without any hit were thinned out: in the full panel of roughly 79,000, 15% have a hit.
experimental.readout: growth inhibition (%)
Answer with a number only, understood to be in %.

Example cases with answers are listed next.
CCOC(=O)CC(C)CCO (stereo unspecified) = -11.4
CCOC(=O)C1=C(c2ccccc2)OC(N)=C(C#N)C1c1ccccc1 (stereo unspecified) = -17.6
O=C(Nc1ccc([N+](=O)[O-])cc1Cl)c1ccc(C(=O)Nc2ccc([N+](=O)[O-])cc2Cl)cc1 = -1.85
COc1cc(/C=N/NC2=NCCN2)ccc1O = 13.2
O=C(NCCO)Nc1ccc2c(c1)OCCOCCOCCOCCO2 = -2.65

Challenge: Form field: reported growth inhibition of CC1C2=C(CCCC2=O)O/C1=N\O (stereo unspecified)
Response given: -0.85

Challenge: Consider the compound shown here: `Cc1ccc(S(=O)(=O)Nn2c(O)c(C#N)c(-c3ccc([N+](=O)[O-])cc3)c(C#N)c2=O)cc1` What is its recorded growth inhibition?
Response given: -7.9

Challenge: Consider the compound shown here: `CCCCCCCCCCCCN=Cc1cc(Cc2ccc(O)c(C=NCCCCCCCCCCCC)c2)ccc1O` What is its recorded growth inhibition?
Response given: 91.3

Challenge: Recorded growth inhibition for COC1OC2COC(C2O)C1OS(=O)(=O)c1ccc(C)cc1 (stereo unspecified) , please?
Response given: 9.2

Challenge: Which value of growth inhibition has been reported for `Oc1cc2oc3cc(O)c(O)cc3c2cc1O` in the records?
Response given: 9.85

Challenge: Please report the recorded growth inhibition for `O=c1cc[nH]c2ccc(Cl)cc12` .
Response given: -4.4
